# TESTED TARGET: human SIRPα v2 expressed on cells (CHOK1 stable line KYinno KC-1720) (human) (UniProt P78324)
# ASSAY COMMENT: competitive FACS, mFc-CD47 ECD on CHOK1-human SIRPα v2 cells
Below, each entry is listed alongside its reported TOP blocking (%).
State just the number; it will be interpreted in %.

>>> experimental_result("025c (antibody, V domains shown) VH: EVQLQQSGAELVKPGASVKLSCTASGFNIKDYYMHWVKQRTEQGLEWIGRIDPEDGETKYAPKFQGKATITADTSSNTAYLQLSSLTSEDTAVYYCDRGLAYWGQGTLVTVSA VL: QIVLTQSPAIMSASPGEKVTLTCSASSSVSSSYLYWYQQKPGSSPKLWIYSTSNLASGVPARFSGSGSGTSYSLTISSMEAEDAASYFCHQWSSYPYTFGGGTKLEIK")
99.7
>>> experimental_result("hu1H9G4 (antibody, V domains shown) VH: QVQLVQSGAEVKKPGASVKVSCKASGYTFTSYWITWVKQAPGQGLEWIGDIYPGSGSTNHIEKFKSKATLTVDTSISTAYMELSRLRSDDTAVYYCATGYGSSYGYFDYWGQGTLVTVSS VL: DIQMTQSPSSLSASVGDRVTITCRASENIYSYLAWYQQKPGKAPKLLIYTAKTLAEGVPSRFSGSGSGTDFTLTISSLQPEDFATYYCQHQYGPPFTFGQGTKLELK")
98.7
>>> experimental_result("hu025.023 (antibody, V domains shown) VH: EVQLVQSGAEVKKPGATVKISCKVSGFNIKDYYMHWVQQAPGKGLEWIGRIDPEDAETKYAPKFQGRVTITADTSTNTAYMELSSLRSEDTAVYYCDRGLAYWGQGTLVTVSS VL: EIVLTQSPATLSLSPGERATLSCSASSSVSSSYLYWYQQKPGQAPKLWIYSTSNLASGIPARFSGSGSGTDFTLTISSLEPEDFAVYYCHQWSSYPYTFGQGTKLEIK")
100

So, hu025.060 (antibody, V domains shown) VH: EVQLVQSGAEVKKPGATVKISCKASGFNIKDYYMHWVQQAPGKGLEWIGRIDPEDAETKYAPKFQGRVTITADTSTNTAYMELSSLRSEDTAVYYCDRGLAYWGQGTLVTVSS VL: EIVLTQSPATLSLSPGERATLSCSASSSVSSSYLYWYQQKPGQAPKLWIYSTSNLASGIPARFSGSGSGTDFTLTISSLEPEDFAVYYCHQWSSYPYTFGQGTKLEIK ? Its TOP blocking (%) was 99.8
